Where do the numbers come from? From patent US7858630B2.

Target: human dopamine D2 receptor (Homo sapiens, UniProt P14416)
Construct: membrane preparation
Sequence (P14416 whole entry): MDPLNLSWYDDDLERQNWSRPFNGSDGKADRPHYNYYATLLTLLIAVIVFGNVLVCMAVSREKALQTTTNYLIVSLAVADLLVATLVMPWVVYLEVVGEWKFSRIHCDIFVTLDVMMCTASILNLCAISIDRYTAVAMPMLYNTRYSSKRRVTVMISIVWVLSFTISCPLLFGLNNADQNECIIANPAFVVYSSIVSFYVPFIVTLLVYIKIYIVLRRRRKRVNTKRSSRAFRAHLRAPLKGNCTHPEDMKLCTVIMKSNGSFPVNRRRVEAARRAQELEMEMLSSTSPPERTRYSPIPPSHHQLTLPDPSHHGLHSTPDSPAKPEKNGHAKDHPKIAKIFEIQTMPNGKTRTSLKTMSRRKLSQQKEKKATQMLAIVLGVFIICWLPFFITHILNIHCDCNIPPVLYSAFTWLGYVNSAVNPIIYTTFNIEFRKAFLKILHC
Test: Radioligand binding ([3H]-spiperone) to membranes of HEK-293 EBNA cells expressing human D2 receptor
Conditions: human D2, 0.7 nM [3H]-spiperone, HEK-293 EBNA membranes, 1 h at RT
pKi: −log10 of the molar value.
pKi below 6 gives -1; pKi at or above it gives 1.

Check the entry COC[C@H]1C[C@H](CC(=O)N[C@H]2CC[C@H](CCN3CCN(c4noc5cc(F)c(Cl)cc45)CC3)CC2)C1 [Example 80] : does pKi equal or exceed 6?
-1

Next compound up: O=C(CO)N[C@H]1CC[C@H](CCN2CCN(c3noc4ccccc34)CC2)CC1 [Example 4]
1

What about Cc1cc2c(N3CCN(CC[C@H]4CC[C@H](NC(=O)CC5CCCCO5)CC4)CC3)noc2cc1F (stereo partly drawn) [Example 117] ?
-1

Okay, and CC(=O)N[C@H]1CC[C@H](CCN2CCN(c3noc4cc(F)c(Cl)cc34)CC2)CC1 [Example 73] ?
1

Please do the same for CC(=O)N[C@H]1CC[C@H](CCN2CCN(c3noc4ccccc34)CC2)CC1 [Example 2] as well.
1

Note, next up: CCC(=O)N[C@H]1CC[C@H](CCN2CCN(c3noc4cc(F)c(F)cc34)CC2)CC1 [Example 59]
1

----------
A collection of compounds and their measured pKi
Target: human serotonin 5-HT2A receptor (Homo sapiens, UniProt P28223)
Sequence (P28223 whole entry): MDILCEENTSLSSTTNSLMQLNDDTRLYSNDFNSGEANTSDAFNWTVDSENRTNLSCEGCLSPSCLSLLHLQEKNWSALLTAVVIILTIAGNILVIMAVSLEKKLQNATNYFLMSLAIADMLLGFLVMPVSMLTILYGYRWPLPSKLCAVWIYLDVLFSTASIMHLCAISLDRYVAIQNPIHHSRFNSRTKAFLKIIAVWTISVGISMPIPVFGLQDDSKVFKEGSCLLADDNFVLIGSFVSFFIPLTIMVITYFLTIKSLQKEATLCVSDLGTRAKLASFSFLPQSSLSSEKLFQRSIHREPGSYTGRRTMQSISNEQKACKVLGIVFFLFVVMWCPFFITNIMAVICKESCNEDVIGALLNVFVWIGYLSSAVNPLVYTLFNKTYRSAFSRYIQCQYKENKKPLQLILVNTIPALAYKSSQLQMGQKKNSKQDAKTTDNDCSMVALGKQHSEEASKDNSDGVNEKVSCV
Please express pKi as -log10 of the molar concentration.

Worked cases, answers included:
{"compound": "CO[C@H]1CC[C@H](CC(=O)N[C@H]2CC[C@H](CCN3CCN(c4noc5ccc(F)cc45)CC3)CC2)CC1 [Example 6]", "pKi": 7.58}
{"compound": "CCS(=O)(=O)N[C@H]1CC[C@H](CCN2CCN(c3noc4cc(F)c(F)cc34)CC2)CC1 [Example 68]", "pKi": 7.75}
{"compound": "O=C(N[C@H]1CC[C@H](CCN2CCN(c3noc4cc(F)c(Cl)cc34)CC2)CC1)C1CC(Cl)C1 (stereo partly shown) [Example 83]", "pKi": 8.07}
{"compound": "CC1(C)C[C@@H](CC(=O)N[C@H]2CC[C@H](CCN3CCN(c4noc5ccc(F)cc45)CC3)CC2)CCO1 [Example 22]", "pKi": 7.49}
{"compound": "O=C(CC1CCOCC1)N[C@H]1CC[C@H](CCN2CCN(c3noc4cc(F)ccc34)CC2)CC1 [Example 112]", "pKi": 8.45}
{"compound": "CS(=O)(=O)N[C@H]1CC[C@H](CCN2CCN(c3noc4ccc(F)cc34)CC2)CC1 [Example 14]", "pKi": 7.55}

Give pKi (human serotonin 5-HT2A receptor (Homo sapiens, UniProt P28223)) of the following compound: CC(C)(O)CC(=O)N[C@H]1CC[C@H](CCN2CCN(c3noc4ccc(F)cc34)CC2)CC1 [Example 11]
7.62

----------
Catalogue of pKi readings, one per entry.
Molecular target: human dopamine D2 receptor (Homo sapiens)
Construct: membrane preparation
Experiment: Radioligand binding ([3H]-spiperone) to membranes of HEK-293 EBNA cells expressing human D2 receptor
Details: human D2, 0.7 nM [3H]-spiperone, HEK-293 EBNA membranes, 1 h at RT
Method: The ability of the compounds to bind to the 5-HT2A, D3 and D2 receptors was determined using radioligand binding to cloned receptors selectively expressed in HEK-293 EBNA cells. Membrane Preparation for Human D2, Human D3 and Human 5-HT2A Receptors […] The binding affinity (Ki) of the compounds was determined using radioligand binding. […] The nonspecific binding was determined with equally composed reaction mixtures in the presence of 10 μM unlabelled spiperone. […]
Conceptually, pKi converts a concentration in mol/L into minus its log10.

Some solved cases for reference:
{"molecule": "O=C(CC1CC1)N[C@H]1CC[C@H](CCN2CCN(c3noc4cc(F)c(Cl)cc34)CC2)CC1", "measurement.target": "human dopamine D2 receptor (Homo sapiens)", "test.readout": "pKi", "result.number": 5.82}
{"molecule": "Cc1cc2c(N3CCN(CC[C@H]4CC[C@H](NC(=O)C[C@H](O)C(F)(F)F)CC4)CC3)noc2cc1F", "measurement.target": "human dopamine D2 receptor (Homo sapiens)", "test.readout": "pKi", "result.number": 5.48}
{"molecule": "O=C(C[C@H]1C[C@H](CO)C1)N[C@H]1CC[C@H](CCN2CCN(c3noc4ccc(F)cc34)CC2)CC1", "measurement.target": "human dopamine D2 receptor (Homo sapiens)", "test.readout": "pKi", "result.number": 6.41}
{"molecule": "O=C(CC1CCOCC1)N[C@H]1CC[C@H](CCN2CCN(c3noc4ccc(F)cc34)CC2)CC1", "measurement.target": "human dopamine D2 receptor (Homo sapiens)", "test.readout": "pKi", "result.number": 5.77}
{"molecule": "CO[C@H]1CC[C@H](CC(=O)N[C@H]2CC[C@H](CCN3CCN(c4noc5cc(F)c(F)cc45)CC3)CC2)CC1", "measurement.target": "human dopamine D2 receptor (Homo sapiens)", "test.readout": "pKi", "result.number": 4.95}
{"molecule": "COC1CCC(C(=O)N[C@H]2CC[C@H](CCN3CCN(c4noc5cc(F)c(F)cc45)CC3)CC2)CC1 (stereo partly shown)", "measurement.target": "human dopamine D2 receptor (Homo sapiens)", "test.readout": "pKi", "result.number": 5.53}
{"molecule": "O=C(N[C@H]1CC[C@H](CCN2CCN(c3noc4cc(F)c(F)cc34)CC2)CC1)C1CCOCC1", "measurement.target": "human dopamine D2 receptor (Homo sapiens)", "test.readout": "pKi", "result.number": 5.57}
{"molecule": "O=C(N[C@H]1CC[C@H](CCN2CCN(c3noc4cc(Cl)ccc34)CC2)CC1)C1(O)CC1", "measurement.target": "human dopamine D2 receptor (Homo sapiens)", "test.readout": "pKi", "result.number": 6.50}

Provide the documented pKi with human dopamine D2 receptor (Homo sapiens) as the system for O=C(CC1OCCCO1)N[C@H]1CC[C@H](CCN2CCN(c3noc4cc(F)c(F)cc34)CC2)CC1
6.06
